Reference for the values: patent US6599901B1

Target: human adenosine A2A receptor (Homo sapiens, UniProt P29274)
Construct: expressed in transfected cells; host or cells: CHO cells, semliki forest virus expression system
Sequence (P29274 whole entry): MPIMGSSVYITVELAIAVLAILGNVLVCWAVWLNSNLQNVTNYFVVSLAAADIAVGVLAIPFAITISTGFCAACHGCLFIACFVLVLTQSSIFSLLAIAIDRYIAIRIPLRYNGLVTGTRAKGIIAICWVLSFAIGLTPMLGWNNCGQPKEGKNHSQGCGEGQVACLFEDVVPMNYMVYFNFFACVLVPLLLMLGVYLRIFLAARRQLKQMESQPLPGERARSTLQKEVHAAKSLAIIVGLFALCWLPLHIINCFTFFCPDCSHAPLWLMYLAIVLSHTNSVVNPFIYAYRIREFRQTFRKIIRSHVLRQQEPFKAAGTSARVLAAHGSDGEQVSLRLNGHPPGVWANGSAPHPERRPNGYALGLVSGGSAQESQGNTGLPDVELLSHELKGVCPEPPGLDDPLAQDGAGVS
Test: [3H]-SCH-58261 binding assay, human adenosine A2A receptor (CHO cell membranes, SPA)
Details: recombinant human A2A receptor in CHO membranes; [3H]-SCH-58261 1 nM; Ki by Cheng-Prussoff; read-out: hA2 (pKi) (converted)
Exercise: state measured Ki for each of the compounds provided.
Answers are plain numbers, in nM.

Below: 4 compounds and their reported Ki.
COc1ccc(N2CCOCC2)c2sc(NC(=O)c3ccn(Cc4ccccc4)c(=O)c3)nc12 [Example 1] = 2.14
COc1ccc(N2CCOCC2)c2sc(NC(=O)c3ccn(CC(=O)N(C)C)c(=O)c3)nc12 [Example 6] = 50.1
CCC(=O)Cn1ccc(C(=O)Nc2nc3c(OC)ccc(N4CCOCC4)c3s2)cc1=O [Example 3] = 5.75
COc1ccc(N2CCOCC2)c2sc(NC(=O)c3ccn(CC(=O)N4CCOCC4)c(=O)c3)nc12 [Example 5] = 58.9

For every listed record, write down its Ki.
1. COc1ccc(N2CCOCC2)c2sc(NC(=O)c3ccn(Cc4ccccn4)c(=O)c3)nc12 [Example 4]
2. CCOC(=O)Cn1ccc(C(=O)Nc2nc3c(OC)ccc(N4CCOCC4)c3s2)cc1=O [Example 2]

Output line:
[7.94, 6.46]
